- target of assay: Histone-lysine N-methyltransferase EHMT2 (Homo sapiens) (UniProt Q96KQ7)
- Sequence (Q96KQ7 913-1193 limits assumed): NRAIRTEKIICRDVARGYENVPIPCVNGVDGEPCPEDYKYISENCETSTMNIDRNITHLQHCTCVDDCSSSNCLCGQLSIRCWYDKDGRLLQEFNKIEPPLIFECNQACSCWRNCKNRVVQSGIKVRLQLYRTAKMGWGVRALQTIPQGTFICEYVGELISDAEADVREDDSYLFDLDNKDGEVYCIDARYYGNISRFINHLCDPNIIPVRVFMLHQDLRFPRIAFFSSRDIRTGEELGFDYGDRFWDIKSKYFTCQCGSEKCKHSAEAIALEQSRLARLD
- assay summary: qHTS Assay for Inhibitors of Histone Lysine Methyltransferase G9a; further: nearly all actives have a fitted effect of over 75% in size
- recorded conditions: G9a H3K9 monomethylation, AlphaScreen, 2 h; series mostly up to 59 µM
Hit rate of the full screen: of about 350,000 compounds, about 31,000 (8.9%) were called active. Another 15% or so got no clear call; they are omitted. The call rests on the fitted dose curve; in most records, active means well fitted inhibition curve with a large enough effect; inconclusive means small, poorly fitted or top-dose-only effect; inactive means no such curve, though single readings can be large or run the other way. Many of the other results were omitted from the sample, so actives are more common in it than they were.
Permitted responses: 1 for active, 0 for inactive

Hi, do you know how NC(=O)C1CCN(C(=O)c2cn(-c3ccccc3)nc2-c2cccnc2)CC1 came out in this test?
0

Hi, do you know how Cc1cnc(C)c(N2CCN(C(=O)C3CCC(=O)N(CCc4cccc(F)c4)C3)CC2)n1 (stereo not given) came out in this test?
0

Hi, do you know how Cc1cc(NC(=O)COC(=O)COc2ccc(Cl)cc2C)c([N+](=O)[O-])cc1C came out in this test?
1

Hi, do you know how COc1ccccc1N=Cc1c(O)c2ccccc2oc1=O came out in this test?
0

Hi, do you know how COc1ccc(OCC(=O)Nc2cccc(C(=O)OCc3cc(=O)n4nc(C)sc4n3)c2)cc1 came out in this test?
0

Hi, do you know how COc1cnc(-c2ccccn2)nc1Oc1ccc(C(C)(C)C)cc1 came out in this test?
0

Hi, do you know how O=C(O)CSC(NC(=O)c1cccnc1)(C(F)(F)F)C(F)(F)F came out in this test?
1

Hi, do you know how CCn1cc(CN2CCC(n3nccc3NC(=O)CCCc3ccccc3)CC2)c(C)n1 came out in this test?
0

Hi, do you know how COc1ccc(OCC(=O)Nc2cc(C)c(Cl)cc2OC)c([N+](=O)[O-])c1 came out in this test?
0

Hi, do you know how COc1cc(NC(=O)COC(=O)CSc2ccc3ccccc3c2)c(C)cc1[N+](=O)[O-] came out in this test?
0

###

- target of assay: Histone-lysine N-methyltransferase EHMT2 (Homo sapiens)
- assay summary: qHTS Assay for Inhibitors of Histone Lysine Methyltransferase G9a; further: nearly all actives have a fitted effect of over 75% in size
- recorded conditions: G9a H3K9 monomethylation, AlphaScreen, 2 h; series mostly up to 59 µM
Out of some 350,000 compounds screened, about 31,000 (8.9%) were called active. Not shown: some 15% with an inconclusive outcome. Calls follow the shape of the dose curve; as a rule, active = well fitted inhibition curve with a large enough effect; inconclusive = small, poorly fitted or top-dose-only effect; inactive = no such curve, though single readings can be large or run the other way. The full list was thinned out, with actives kept by preference.
Permitted responses: class 1 = active, class 0 = inactive

Hi, do you know how CCN(CCCNC(=O)CSc1cc(=O)n(C)c2cc(Cl)ccc12)Cc1ccccc1 came out in this test?
class 0

Hi, do you know how CCN(CCCNC(=O)CSc1cc(=O)n(C)c2cc(Cl)ccc12)c1cccc(C)c1 came out in this test?
class 1

Hi, do you know how O=C(COC(=O)c1ncc(Cl)c(Cl)c1Cl)NNC(=O)c1ccccc1 came out in this test?
class 0

Hi, do you know how CCOc1ccc(CCNC(=O)CSc2cc(=O)n(C)c3ccc(Cl)cc23)cc1OCC came out in this test?
class 0

Hi, do you know how CCCN(CCC)C(=O)Cn1c(=O)n(-c2ccc(Cl)cc2)c(=O)c2c3c(sc21)CCCCC3 came out in this test?
class 0

Hi, do you know how O=C(NCc1ccc2c(c1)CCN2C(=O)c1ccccc1)Nc1cc(F)ccc1F came out in this test?
class 0

Hi, do you know how O=C(CN1C(=O)c2cccnc2Oc2ccc(Cl)cc21)NCCc1ccccc1 came out in this test?
class 0

Hi, do you know how Cc1cccc(OCc2nnc(SCn3nnc4ccccc4c3=O)o2)c1 came out in this test?
class 0

Hi, do you know how O=C(CN(CC1CCCO1)C(=O)CNS(=O)(=O)c1ccc(Cl)cc1)NCc1ccccc1 (stereo not given) came out in this test?
class 0

Hi, do you know how CCOc1ccc(N(CC(=O)NCC2CCCO2)S(=O)(=O)c2ccc(C)cc2)cc1 (stereo not given) came out in this test?
class 1

###

- target of assay: Histone-lysine N-methyltransferase EHMT2 (Homo sapiens) (UniProt Q96KQ7)
- assay summary: qHTS Assay for Inhibitors of Histone Lysine Methyltransferase G9a; further: nearly all actives have a fitted effect of over 75% in size
- recorded conditions: G9a H3K9 monomethylation, AlphaScreen, 2 h; series mostly up to 59 µM
The campaign covered roughly 350,000 compounds. About 31,000 (8.9%) were called active. Another 15% or so got no clear call; they are omitted. Calls come from the whole dose curve; as a rule, active = well fitted inhibition curve with a large enough effect; inconclusive = small, poorly fitted or top-dose-only effect; inactive = no such curve, though single readings can be large or run the other way. Shown is part of a subset that was picked to be rich in actives.
Permitted responses: active, inactive

Hi, do you know how COc1ccc(-c2nonc2NC(=O)c2oc3ccc(F)cc3c2C)cc1OC came out in this test?
inactive

Hi, do you know how COc1ccc(Cl)cc1NC(=O)C(C)Sc1nc2c(c(=O)[nH]1)CCCC2 (configuration not stated) came out in this test?
inactive

Hi, do you know how CC(=O)c1ccc(NC(=O)C2CCN(S(=O)(=O)c3c(C)noc3/C=C/c3ccc(C)cc3)CC2)cc1 came out in this test?
inactive

Hi, do you know how COC(=O)c1cc(NC2c3ccccc3C(=O)N2c2ccc(Cl)cn2)cc(C(=O)OC)c1 (configuration not stated) came out in this test?
inactive

Hi, do you know how COc1ccc(OC)c(-c2nc(C(N)=O)c3c(n2)n(-c2ccc4c(c2)OCO4)c(=O)n3C)c1 came out in this test?
inactive

Hi, do you know how COc1ccc2[nH]c3ccc(OC)cc3c2c1 came out in this test?
active

Hi, do you know how COc1cccc(CNC(=O)C2CC(=O)N(C3CCCCCCC3)C2)c1 (configuration not stated) came out in this test?
inactive

Hi, do you know how Cc1ccc2oc(C(=O)Nc3ccc(S(=O)(=O)N4CCCCCC4)cc3)cc(=O)c2c1 came out in this test?
inactive

Hi, do you know how Cc1cc(C)c(C2C3=C(Nc4c2c(C)nn4-c2ccccn2)c2ccccc2C3=O)c(C)c1 (configuration not stated) came out in this test?
active

Hi, do you know how COc1ccc(C2(C)NC(=O)N(CC(=O)c3ccc4c(c3)OCO4)C2=O)cc1 (configuration not stated) came out in this test?
inactive

Hi, do you know how CCc1ccc(-n2nnc(-c3nc(-c4ccccc4)no3)c2C)cc1 came out in this test?
inactive

Hi, do you know how Cc1cc(N2CCN(c3cccc(C(F)(F)F)c3)CC2)n2nc(-c3ccccc3)nc2n1 came out in this test?
inactive

Hi, do you know how OCCN(Cc1ccccc1)Cc1ccc(Cl)cc1 came out in this test?
active

Hi, do you know how CCOc1ccc(NC(=O)CN(C)C(=O)Cn2c(=O)cnc3ccccc32)cc1OCC came out in this test?
inactive

Hi, do you know how Cc1ccc(C)c(N2CCN(C(=O)C3CCC(CNS(=O)(=O)c4cccs4)CC3)CC2)c1 (configuration not stated) came out in this test?
inactive

Hi, do you know how CCc1ccc(S(=O)(=O)Nc2cc3c(cc2N2CCCCC2)n(C)c(=O)c(=O)n3C)cc1 came out in this test?
active

Hi, do you know how CCN(CC)CC(=O)c1c[nH]c2ccc(OC)cc12 came out in this test?
inactive

Hi, do you know how Cc1c(-c2nc(-c3ccc4c(c3)OCO4)no2)nnn1-c1ccc(Br)cc1F came out in this test?
inactive

Hi, do you know how Cc1cccc(OCC(=O)NC2CC(C)(C)NC(C)(C)C2)c1 came out in this test?
inactive

Hi, do you know how O=C1c2ccccc2C(Nc2ccc3c(c2)OCCO3)N1Cc1ccco1 (configuration not stated) came out in this test?
active

Hi, do you know how COCCNC(=O)CSc1nc(-c2ccccc2)[nH]c1-c1ccc(C)cc1 came out in this test?
inactive

Hi, do you know how COc1ccc(NC(=O)NCc2ccc3c(c2)OCO3)c(OC)c1 came out in this test?
inactive

Hi, do you know how CC(=O)c1ccc(NC(=O)CSc2nnc(NC(=O)Nc3ccccc3)s2)cc1 came out in this test?
inactive

Hi, do you know how CN(C(=O)CN(CCO)CC(=O)N(C)C(C)(C)Cc1ccccc1)C(C)(C)Cc1ccccc1 came out in this test?
inactive

Hi, do you know how COc1cccc(CNCc2ccc3c(c2)OCO3)c1 came out in this test?
active

Hi, do you know how CCc1ccc(N2C(=O)CN(S(=O)(=O)CC)CC2(C)C(=O)NC2CCCCC2)cc1 (configuration not stated) came out in this test?
inactive

Hi, do you know how Cc1cc(C)c(-c2n[nH]c3c2C(c2ccccc2F)N(CCO)C3=O)c(O)c1 (configuration not stated) came out in this test?
inactive

Hi, do you know how Cn1c(S(=O)(=O)O)nc2ccccc21 came out in this test?
inactive

Hi, do you know how Cc1ccc(CN2CCC(CNC(=O)c3cnn(-c4ccc(C)cc4)c3C3CCN(C(=O)OC(C)(C)C)CC3)CC2)cc1 came out in this test?
inactive

Hi, do you know how COCC1CCN(C(=O)CCc2nnc(C3(c4ccc(Cl)cc4)CCC3)o2)C1 (configuration not stated) came out in this test?
inactive

Hi, do you know how COc1ccc(CCNC(=O)c2ccc(-n3c(C)cc4c3CCCC4)cc2)cc1OC came out in this test?
inactive

Hi, do you know how O=S(=O)(O)c1nc2ccccc2n1Cc1ccc(Cl)cc1 came out in this test?
active

Hi, do you know how CCOC(=O)c1ccc(CN(Cc2ccccc2)S(=O)(=O)c2ccc(Cl)cc2)cc1 came out in this test?
inactive

Hi, do you know how O=S(=O)(O)c1nc2ccccc2n1Cc1ccc(Cl)cc1Cl came out in this test?
inactive

Hi, do you know how O=C(NC1CCCCC1)C1c2ccccc2C(=O)N1Cc1ccco1 (configuration not stated) came out in this test?
inactive

Hi, do you know how COc1ccc2[nH]c(C(=O)N3CCN(C)CC3)c(C)c2c1 came out in this test?
inactive

Hi, do you know how Cc1cccc(NC(=O)CSc2nnc(NC(=O)CN3CCOCC3)s2)c1 came out in this test?
active

Hi, do you know how Cc1ccc(CNC(=O)CSc2c3c(nc4cc(Cl)ccc24)CCCC3)cc1 came out in this test?
inactive

Hi, do you know how COc1ccc2c(c1)C(C)=CC(C)(C)N2C(=O)CNCc1ccc2c(c1)OCO2 came out in this test?
active

Hi, do you know how CC(=O)c1ccc(N2CCN(C(=O)c3ccc(Cl)c(S(=O)(=O)NC4CC4)c3)CC2)c(F)c1 came out in this test?
inactive

Hi, do you know how O=C(Nc1ccccc1N1CCN(C(=O)c2ccccc2)CC1)c1ccco1 came out in this test?
inactive

Hi, do you know how CCc1ccc(S(=O)(=O)Nc2ccc(C)c(NS(C)(=O)=O)c2)cc1 came out in this test?
inactive
